The measured values listed here are drawn from ChEMBL document CHEMBL3865799.

# key: entry, value: inhibition of growth at 50 µM
- measurement.notes: Cytotoxicity against human MIAPaCa2 cells assessed as cell growth inhibition at 50 uM after 48 hrs by MTT assay
- Type: functional
- protocol.conditions: MIA PaCa-2, 48 h, read-out: GI
measurement.kind: inhibition of growth at 50 µM

substance.smiles	measurement.kind	reported.result
COc1ccc(C(=O)/C=C/c2ccc(OCCO[C@H]3O[C@@H]4O[C@@]5(C)CC[C@H]6[C@H](C)CC[C@@H]([C@H]3C)[C@@]46OO5)cc2)c(OC)c1	inhibition of growth at 50 µM	46.8%
C[C@H]1[C@@H](OCCOc2ccc(/C=C/C(=O)c3ccc(O)cc3)cc2)O[C@@H]2O[C@@]3(C)CC[C@H]4[C@H](C)CC[C@@H]1[C@@]24OO3	inhibition of growth at 50 µM	88.8%
COc1cc(/C=C/C(=O)c2ccc(OCCO[C@H]3O[C@@H]4O[C@@]5(C)CC[C@H]6[C@H](C)CC[C@@H]([C@H]3C)[C@@]46OO5)cc2)cc(OC)c1OCCO[C@H]1O[C@@H]2O[C@@]3(C)CC[C@H]4[C@H](C)CC[C@@H]([C@H]1C)[C@@]24OO3	inhibition of growth at 50 µM	48.1%
C[C@H]1[C@@H](O)O[C@@H]2O[C@@]3(C)CC[C@H]4[C@H](C)CC[C@@H]1[C@@]24OO3	inhibition of growth at 50 µM	71%
C[C@H]1[C@@H](OCCOc2ccc(/C=C/C(=O)c3ccc(OCCO[C@H]4O[C@@H]5O[C@@]6(C)CC[C@H]7[C@H](C)CC[C@@H]([C@H]4C)[C@@]57OO6)cc3)cc2)O[C@@H]2O[C@@]3(C)CC[C@H]4[C@H](C)CC[C@@H]1[C@@]24OO3	inhibition of growth at 50 µM	49.1%
COc1ccc(/C=C/C(=O)c2ccc(OCCO[C@H]3O[C@@H]4O[C@@]5(C)CC[C@H]6[C@H](C)CC[C@@H]([C@H]3C)[C@@]46OO5)cc2)c(OC)c1OC	inhibition of growth at 50 µM	43.1%
CCOc1cc(/C=C/C(=O)c2ccc(OCCO[C@H]3O[C@@H]4O[C@@]5(C)CC[C@H]6[C@H](C)CC[C@@H]([C@H]3C)[C@@]46OO5)cc2)ccc1O	inhibition of growth at 50 µM	49.8%
C[C@H]1[C@@H](OCCOc2ccc(-c3cc(=O)c4ccc(OCCO[C@H]5O[C@H]6O[C@@]7(C)CC[C@H]8[C@H](C)CC[C@@H]([C@H]5C)[C@@]68OO7)cc4o3)cc2)O[C@H]2O[C@@]3(C)CC[C@H]4[C@H](C)CC[C@@H]1[C@@]24OO3	inhibition of growth at 50 µM	41.8%
C[C@H]1[C@@H](OCCOc2ccc(/C=C/C(=O)c3ccc(Cl)cc3)cc2)O[C@@H]2O[C@@]3(C)CC[C@H]4[C@H](C)CC[C@@H]1[C@@]24OO3	inhibition of growth at 50 µM	62.8%
